target: His-tagged IgD (SpyTagged HAPPID1: human anti-Phl p 7 IgD 102.1F10 with SpyTag003 and His6-tag on the heavy chain) (human) (UniProt P01880); experiment: SPR; His-tagged IgD (100 nM) captured on an anti-His chip (CM5); two-fold dilution series of TEV-cleaved Nbs, 200 nM to 1.6 nM, flowed over; Biacore T200, 25 °C, 10 mM HEPES pH 7.4, 150 mM NaCl, 0.05% P20; koff from mono- or biphasic decay, kon from kobs against concentration, KD = koff/kon

{"binder": "anti-IgD Nb 107 (aδNb107), TEV-cleaved (VHH) VHH: QVQLQESGGGLVQAGASLRLSCTASERTFSPYAMGWFRQAPGREREVIASIFWTGGNTGYADSVKGRFTISRDTAKNTVYLQMSNLKPEDTAVYYCGARTSASAPIYGLWGQGTQVTVSS", "kon / M⁻¹ s⁻¹": 210000}
{"binder": "anti-IgD Nb 367 (aδNb367), TEV-cleaved (VHH) VHH: QVQLQESGGGLVQPGGSLRLACAASGFSLSTYTMSWVRQSPGKGLEWVSTITSDGGWTSYRDSVKGRFTISRDNAKNTLYLQMNSLNPEDTAVYYCRRGVGVVRGERPGGQGTQVTVSS", "kon / M⁻¹ s⁻¹": 200000}
{"binder": "anti-IgD Nb 408 (aδNb408), TEV-cleaved (VHH) VHH: QVQLQESGGGLVQAGDSLRLSCVASGRSISNDAMAWFRQAPGKEREFVAAITWRYSNTHYSDSVKDRFTISRDNAKNTVYLQMNSLKPEDTADYYCAADRRGTGASSYSRDYDYWGQGTQVTVSS", "kon / M⁻¹ s⁻¹": 820000}
{"binder": "anti-IgD Nb 571 (aδNb571), TEV-cleaved (VHH) VHH: QVQLQESGGGLVQPGGSLRLSCAASGTPFSASVMAWYRQAPGKERVWVATITSDSMTYYADSVNGRFTISRDNAKSTVYLQMNSLKPEDTAAYICRHAASASWGQGTQVTVSS", "kon / M⁻¹ s⁻¹": "1.8e+06"}
